SYSTEM UNDER TEST: Human TASK-1 channels (Homo sapiens (Human), UniProt O14649)
Sequence (O14649 whole entry): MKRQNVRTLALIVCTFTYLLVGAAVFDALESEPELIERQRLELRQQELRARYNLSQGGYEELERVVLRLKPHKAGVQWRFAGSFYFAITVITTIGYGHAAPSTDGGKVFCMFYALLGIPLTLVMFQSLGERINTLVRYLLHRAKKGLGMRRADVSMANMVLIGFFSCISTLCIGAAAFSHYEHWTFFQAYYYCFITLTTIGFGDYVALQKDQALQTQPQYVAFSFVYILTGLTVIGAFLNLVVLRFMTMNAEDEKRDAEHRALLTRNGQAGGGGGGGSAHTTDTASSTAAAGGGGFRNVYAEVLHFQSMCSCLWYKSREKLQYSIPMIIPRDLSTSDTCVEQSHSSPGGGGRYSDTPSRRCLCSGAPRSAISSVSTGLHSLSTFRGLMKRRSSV
PROTOCOL NOTES: Activity on the TASK-1 channel in Xenopus oocytes (two-microelectrode voltage clamp)
COND: human TASK-1 expressed in Xenopus oocytes, currents during 500 ms pulses to 40 mV, room temperature
REPORTED ENDPOINT: IC50 (nM)
Write down the numeric answer in nM and omit the unit.

Suppose we examine the compound CC(=O)N1CCc2c(c(-c3ccc(F)cc3)nn2[C@@H]2c3cc(Cl)c(Cl)cc3C[C@H]2O)C1 (racemic) [Example 11u] ; what IC50 value has been reported?
1010

Suppose we examine the compound CC(=O)N1CCc2c(c(-c3cccc(C(F)(F)F)c3)nn2[C@H]2c3cc(F)cc(F)c3C[C@@H]2O)C1 [Example 11h] ; what IC50 value has been reported?
370

Suppose we examine the compound CC(=O)N1CCc2c(c(-c3cccc(C#N)c3)nn2[C@@H]2c3cc(F)cc(C4CC4)c3C[C@H]2O)C1 [Example 20a] ; what IC50 value has been reported?
500

Suppose we examine the compound CC(=O)N1CCc2c(c(-c3cccc(C#N)c3)nn2[C@@H]2c3cc(Cl)cc(Cl)c3C[C@H]2O)C1 [Example 11g] ; what IC50 value has been reported?
350

Suppose we examine the compound CC(=O)N1CCc2c(c(-c3cccc(OC(F)(F)F)c3)nn2[C@@H]2c3cc(F)cc(F)c3C[C@H]2O)C1 [Example 11a] ; what IC50 value has been reported?
171

Suppose we examine the compound CC(=O)N1CCc2c(c(-c3cccc(C(F)(F)F)n3)nn2[C@@H]2c3cc(F)cc(F)c3C[C@H]2O)C1 [Example 11e] ; what IC50 value has been reported?
239

Suppose we examine the compound CC(=O)N1CCc2c(c(-c3cccc(C#N)c3)nn2[C@H]2c3cc(F)cc(F)c3C[C@@H]2O)C1 [Example 11o] ; what IC50 value has been reported?
675

###

SYSTEM UNDER TEST: Human TASK-1 channels (Homo sapiens (Human))
PROTOCOL NOTES: Activity on the TASK-1 channel in Xenopus oocytes (two-microelectrode voltage clamp)
COND: human TASK-1 expressed in Xenopus oocytes, currents during 500 ms pulses to 40 mV, room temperature
Kindly supply the reported log10 IC50 values for the records listed here.
// do not treat as linear: log10 of IC50, unit nM

Please tell me: log10 IC50 of CC(=O)N1CCc2c(c(-c3ccc(F)c(C#N)c3)nn2[C@@H]2c3cc(F)cc(F)c3C[C@H]2O)C1 [Example 11z] , system Human TASK-1 channels (Homo sapiens (Human))?
3.33

Please tell me: log10 IC50 of CC(=O)N1CCc2c(c(-c3cccc(Cl)c3)nn2[C@H]2c3cc(F)cc(F)c3C[C@@H]2O)C1 [Example 11b] , system Human TASK-1 channels (Homo sapiens (Human))?
2.28

Please tell me: log10 IC50 of CC(=O)N1CCc2c(c(-c3ccc(F)cc3)nn2[C@@H]2c3cc(F)cc(F)c3C[C@H]2O)C1 [Example 11l] , system Human TASK-1 channels (Homo sapiens (Human))?
2.69

Please tell me: log10 IC50 of O[C@@H]1Cc2c(F)cc(F)cc2[C@H]1n1nc(-c2ccc(F)cc2)c2c1CCN(CC1CC1)C2 [Example 18a] , system Human TASK-1 channels (Homo sapiens (Human))?
2.70

Please tell me: log10 IC50 of N#Cc1cccc(-c2nn([C@@H]3c4cc(F)cc(F)c4C[C@H]3O)c3c2CN(C(=O)C2CC2)CC3)c1 [Example 14b] , system Human TASK-1 channels (Homo sapiens (Human))?
1.92

Please tell me: log10 IC50 of CCNC(=O)N1CCc2c(c(-c3cccc(C#N)c3)nn2[C@@H]2c3cc(Cl)cc(Cl)c3C[C@H]2O)C1 [Example 22a] , system Human TASK-1 channels (Homo sapiens (Human))?
2.26

Please tell me: log10 IC50 of CC(=O)N1CCc2c(c(-c3cccc(C(F)(F)F)c3)nn2[C@@H]2c3cc(F)cc(F)c3C[C@H]2O)C1 [Example 11q] , system Human TASK-1 channels (Homo sapiens (Human))?
2.89

Please tell me: log10 IC50 of COC(=O)N1CCc2c(c(-c3cccc(C#N)c3)nn2[C@@H]2c3cc(F)cc(F)c3C[C@H]2O)C1 [Example 17a] , system Human TASK-1 channels (Homo sapiens (Human))?
2.41

Please tell me: log10 IC50 of COc1cccc(-c2nn([C@@H]3c4cc(F)cc(F)c4C[C@H]3O)c3c2CN(C(C)=O)CC3)c1 [Example 11k] , system Human TASK-1 channels (Homo sapiens (Human))?
2.65

Please tell me: log10 IC50 of CC(=O)N1CCc2c(c(-c3cccc(Cl)c3)nn2[C@@H]2c3cc(F)cc(F)c3C[C@H]2O)C1 [Example 11v] , system Human TASK-1 channels (Homo sapiens (Human))?
3.07

Please tell me: log10 IC50 of CO[C@@H]1Cc2c(F)cc(F)cc2[C@H]1n1nc(-c2ccc(F)cc2)c2c1CCN(C(C)=O)C2 [Example 16b] , system Human TASK-1 channels (Homo sapiens (Human))?
3.06

Please tell me: log10 IC50 of CC(=O)N1CCc2c(c(-c3cccc(C#N)c3)nn2[C@@H]2c3cc(F)cc(Br)c3C[C@H]2O)C1 [Example 11d] , system Human TASK-1 channels (Homo sapiens (Human))?
2.35

Please tell me: log10 IC50 of CC(=O)N1CCc2c(c(-c3ccc(F)cc3)nn2[C@@H]2CCc3ccccc32)C1 [Example 12a] , system Human TASK-1 channels (Homo sapiens (Human))?
2.85

Please tell me: log10 IC50 of CCC(=O)N1CCc2c(c(-c3cccc(C#N)c3)nn2[C@@H]2c3cc(F)cc(F)c3C[C@H]2O)C1 [Example 14a] , system Human TASK-1 channels (Homo sapiens (Human))?
1.85

Please tell me: log10 IC50 of CC(=O)N1CCc2c(c(-c3cccc(C#N)c3)nn2[C@@H]2c3cc(F)cc(F)c3C[C@H]2O)C1 [Example 11t] , system Human TASK-1 channels (Homo sapiens (Human))?
2.94

###

SYSTEM UNDER TEST: Human TASK-1 channels (Homo sapiens (Human), UniProt O14649)
PROTOCOL NOTES: Activity on the TASK-1 channel in Xenopus oocytes (two-microelectrode voltage clamp)
Type: cell-based
COND: 5 μM; percentage inhibition of TASK-1 control current, Xenopus oocytes
# label = y if inhibition at 5 µM >= 80% else n

Quick check, inhibition at 5 µM >= 80%? N#Cc1cccc(-c2nn([C@@H]3c4cc(F)cc(F)c4C[C@H]3O)c3c2CN(CCC(F)(F)F)CC3)c1 [Example 18c]
y

Quick check, inhibition at 5 µM >= 80%? NC(=O)c1cccc(-c2nn([C@@H]3c4cc(F)cc(F)c4C[C@H]3O)c3c2CN(C(=O)C2CC2)CC3)c1 [Example 15b]
n

Quick check, inhibition at 5 µM >= 80%? NC(=O)c1cccc(-c2nn([C@@H]3c4cc(F)cc(F)c4C[C@H]3O)c3c2CN(CCC(F)(F)F)CC3)c1 [Example 18h]
n

Quick check, inhibition at 5 µM >= 80%? COCC(=O)N1CCc2c(c(-c3cccc(C#N)c3)nn2[C@@H]2c3cc(F)cc(F)c3C[C@H]2O)C1 [Example 14e]
n

Quick check, inhibition at 5 µM >= 80%? COCCN1CCc2c(c(-c3cccc(C#N)c3)nn2[C@@H]2c3cc(F)cc(F)c3C[C@H]2O)C1 [Example 18d]
y

Quick check, inhibition at 5 µM >= 80%? CSc1cc(F)cc2c1C[C@@H](O)[C@@H]2n1nc(-c2cccc(C#N)c2)c2c1CCN(C(C)=O)C2 [Example 21c]
y

###

SYSTEM UNDER TEST: Human TASK-1 channels (Homo sapiens (Human), UniProt O14649)
PROTOCOL NOTES: Activity on the TASK-1 channel in Xenopus oocytes (two-microelectrode voltage clamp)
COND: human TASK-1 expressed in Xenopus oocytes, currents during 500 ms pulses to 40 mV, room temperature
REPORTED ENDPOINT: IC50 (nM)
Write down the numeric answer in nM and omit the unit.

Please tell me: IC50 of CC(=O)N1CCc2c(c(-c3cccc(C#N)c3)nn2[C@@H]2c3cc(F)cc(Cl)c3C[C@H]2O)C1 [Example 21a] , system Human TASK-1 channels (Homo sapiens (Human), UniProt O14649)?
393

Please tell me: IC50 of CC(C)N1CCc2c(c(-c3ccc(F)cc3)nn2[C@@H]2c3cc(F)cc(F)c3C[C@H]2O)C1 [Example 18b] , system Human TASK-1 channels (Homo sapiens (Human), UniProt O14649)?
8190

Please tell me: IC50 of CC(=O)N1CCc2c(c(-c3ccc(C)cc3)nn2[C@@H]2c3cc(F)cc(F)c3C[C@H]2O)C1 [Example 11x] , system Human TASK-1 channels (Homo sapiens (Human), UniProt O14649)?
1520

Please tell me: IC50 of CC(=O)N1CCc2c(c(-c3ccc(F)cc3)nn2[C@@H]2c3cc(Cl)cc(F)c3C[C@H]2O)C1 [Example 11n] , system Human TASK-1 channels (Homo sapiens (Human), UniProt O14649)?
568
